- system: soluble IL-6R in cynomolgous plasma (cynomolgus monkey, UniProt A0A2K5WN54)
- protocol-details: ELISA 2, periplasmic extract; competitor IL-6; cyno plasma
Record form. Attribute: OD450 ratio sample/blank. Fill in for each entry.
Could you respond with only the numeric value?

Reported OD450 ratio sample/blank, binder IL6RPMP105E11 (VHH) VHH: EVQLVESGGGLVQAGGSLRLSCAASGFAFDDYAIGWFRQAPGKEREGVSSISSSNGNTYYADSVRGRFTISSDNAKNTVYLQMNGLKPEDTGVYYCAAIWGIFFNEKMPVGAYDYWGQGTQVTVSS : ____
0.691

If you can, please state the reported OD450 ratio sample/blank value of IL6RPMP120A1 (VHH) VHH: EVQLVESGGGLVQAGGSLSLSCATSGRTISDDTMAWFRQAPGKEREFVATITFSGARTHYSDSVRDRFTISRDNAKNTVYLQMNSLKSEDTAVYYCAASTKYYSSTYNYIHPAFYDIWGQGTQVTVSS .
0.198

What does the data say about its OD450 ratio sample/blank? Entry: IL6RPMP107A1 (VHH) VHH: EVQLVESGGGLVQAGGSLNLSCNASGDIGSINAMGWYRQAPGQQREWVAVITDTDSTIYPDSVKGRFAISRDGAKNTVHLRMSSLKPEDTAVYYCNAYQAGWGDYWGQGTQVTVSS
0.292

Query (binder): IL6RPMP103A4 (VHH) VHH: EVQLVESGGGLVQPGGSLRLSCAASGSIFSINTMGWYRQVPGKQRELVATVRSGSITNYADSVQDRFTITRDIDENTVYLQMNSLKPEDTAVYYCLTRASVPGRGYQDYWGQGTQVTVSS ; field requested: OD450 ratio sample/blank
0.916

Which OD450 ratio sample/blank is reported for this binder? IL6RPMP105B8 (VHH) VHH: EVQLVESGGGLVRAGGSLRLSCAASGFAFDDYAIGWFRQAPGKEREGVSSISSSNGNTYYADSVRGRFTISSDNAKNTVYLQMNSLKPEDTGVYYCAAIWGIFFNEKMPVGAYDYWGQGTQVTVSS
0.816

Return reported OD450 ratio sample/blank; argument: IL6RPMP101D2 (VHH) VHH: EVQMVESGGGLVQAGGSLRLSCAASGFAFDDYAIGWFRQAPGKEREGVSSISSSNGNTYYADSVRGRFTISSDNAKNTVYLQMNSLKPEDAGVYYCAAIWGIFFNEKMPVGAYDYWGQGTQVTVSS
0.822

Would you mind telling me what OD450 ratio sample/blank value was observed for IL6RPMP100A6 (VHH) VHH: EVQLVESGGGLVQAGDSLRLSCLASGRSFKDDAMGWFRQAPGKEREFVSGIDWRGNIVDAESVKGRFTISRENAKNTLYLQMNHLKPEDTAVYYCAASSVFSDLRYRKNPKYWGQGTQVTVSS ?
0.722

Dear colleague, I am looking for the recorded OD450 ratio sample/blank of the following binder: IL6RPMP104B9 (VHH) VHH: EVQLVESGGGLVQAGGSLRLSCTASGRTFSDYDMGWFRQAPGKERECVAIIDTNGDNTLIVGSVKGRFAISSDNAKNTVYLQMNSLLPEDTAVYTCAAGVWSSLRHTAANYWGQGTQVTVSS
0.766
